Quick reference: bioavailability of the listed items.
PROTOCOL_TEXT: Oral bioavailability in Sprague-Dawley rat at 10 mg/kg measured upto 12 hrs by LC-MS/MS analysis
Format: ADME, organism-based
CONDITION_CONTEXT: in vivo
Supply the numeric figure in %, leaving out any unit text.

> print(dat)
                                item.smiles  numeric.result
1  Cc1cc(/C=C/C#N)cc(C)c1Oc1nc(NC2CCN(Cc3ccc(C(N)=O)cc3)CC2)nc2c1COC2            32.1

Notebook: `Cc1cc(/C=C/C#N)cc(C)c1Oc1nc(NC2CCN(c3ccc(NS(C)(=O)=O)cc3)CC2)nc2c1COC2` , bioavailability read as 16.6
